- Target: T1, Rb^P D604G (human, UniProt P06400 380-788, D604G)
- T1 construct: also called variant 36
- T1 sequence (looked up): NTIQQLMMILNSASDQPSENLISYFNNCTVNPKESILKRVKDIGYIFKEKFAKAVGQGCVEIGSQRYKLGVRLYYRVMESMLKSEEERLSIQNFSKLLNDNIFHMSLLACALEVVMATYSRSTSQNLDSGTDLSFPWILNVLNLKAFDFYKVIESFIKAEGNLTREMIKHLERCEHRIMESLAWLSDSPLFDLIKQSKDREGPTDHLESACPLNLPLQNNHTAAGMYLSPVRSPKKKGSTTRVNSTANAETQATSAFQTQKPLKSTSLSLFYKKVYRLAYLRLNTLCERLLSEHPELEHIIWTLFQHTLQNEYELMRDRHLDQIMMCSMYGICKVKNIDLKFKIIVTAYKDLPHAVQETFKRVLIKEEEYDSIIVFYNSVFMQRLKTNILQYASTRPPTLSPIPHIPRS
- Assay protocol: fluorescence polarisation; 25 °C; unlabeled Rb^P titrated against 1.5 nM TMR-E2F1^TD or 7.5 nM TMR-E7^LxCxE; 25 mM Tris pH 8.0, 200 mM NaCl, 1 mM DTT, 0.1% Tween-20; 2 min incubation; quadratic fit; apparent Kd for the variants, Kd for WT
- Condition: both partners purified
No end group written: not given here. TMR = tetramethyl rhodamine dye
Recorded metric: pKd
# pKd: negative log10 of molar concentration; output just the value

{"Binder": "DLYCYEQLN (also: TMR label, position not given here, source: synthetic peptide, bought: GenScript) [TMR-E7^LxCxE, LxCxE peptide of the E7 oncoprotein from HPV]", "pKd": 7.89}

Query: Query (binder): {TMR}-GEGIRDLFDCDFGDLTPLD (also called E2F^TD; source: synthetic peptide, bought: GenScript) [TMR-E2F1^TD, peptide of the E2F1 transactivation domain] ; field requested: pKd
Result: 7.57
